tested on: retinoid nuclear receptors (RAR and RxR); assay: Retinoid nuclear receptor activity
measured_quantity: effects on retinoid nuclear receptors (RAR and RxR)

compound	reported_measurement
CC1=C(/C=C/C(C)=C/C=C/C(C)=C/C(=O)O)C(C)(C)CCC1 [at-RA, All-trans-retinoic acid, reference compound]	activated
C/C(=C\c1ccc(C(=O)O)cc1)c1ccc2c(c1)C(C)(C)CCC2(C)C [TTNPB, reference compound]	activated

----------
Target: isomerase (Mus musculus, UniProt Q91ZQ5)
Construct: The recovery of 11-cis-retinal after bleaching can be used to estimate the activity of isomerase in vivo; from tissue; host or cells: eye (RPE) of living CD-1 albino male mice
Sequence (Q91ZQ5 whole entry): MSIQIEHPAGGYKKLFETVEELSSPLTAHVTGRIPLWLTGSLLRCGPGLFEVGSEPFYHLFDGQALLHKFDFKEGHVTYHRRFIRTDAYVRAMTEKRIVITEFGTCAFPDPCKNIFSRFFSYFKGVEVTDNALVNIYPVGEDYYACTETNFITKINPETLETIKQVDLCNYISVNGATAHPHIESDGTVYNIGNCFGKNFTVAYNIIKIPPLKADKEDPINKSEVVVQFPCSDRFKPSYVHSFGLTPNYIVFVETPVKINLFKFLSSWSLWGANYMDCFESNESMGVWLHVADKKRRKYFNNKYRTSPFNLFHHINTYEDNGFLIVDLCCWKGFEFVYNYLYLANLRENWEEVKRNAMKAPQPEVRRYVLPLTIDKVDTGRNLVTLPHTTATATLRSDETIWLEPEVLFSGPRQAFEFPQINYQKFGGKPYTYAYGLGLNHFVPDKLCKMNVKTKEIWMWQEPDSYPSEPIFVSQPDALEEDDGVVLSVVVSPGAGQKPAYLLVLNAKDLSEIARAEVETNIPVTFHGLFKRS
Experiment: In vivo murine isomerase assay (recovery of 11-cis-retinal after photobleaching)
Set-up: species or system CD-1 (albino) male mice
Details: CD1 male mice, single oral dose 1 mg/kg, photobleaching 4 h post dosing
Protocol: The capability of amine derivative compounds to inhibit isomerase was determined by an in vivo murine isomerase assay. […] […] Retinoids were extracted from the eye and the regeneration of 11-cis-retinal was assessed at various time intervals. […] The samples were analyzed on an Agilent 1100 HPLC system with normal phase column: SILICA (Beckman Coutlier, dp 5 μm, 4.6 mM×250 mM). […] The area under the curve for 11-cis retinal oxime was calculated by Agilent Chemstation software and was recorded manually. […]
Mark T only when % Inhibition 1 mg/kg 4 h stays strictly below 70%. Values equal to the cut-off are F.

Please review the following examples before continuing.
compound	target	answer_label
CC(C)CCCc1cccc(C(O)CCN)c1 (stereo not drawn)	isomerase (Mus musculus, UniProt Q91ZQ5)	F
CCCC(O)(CCC)CCc1cccc(OCCN)c1	isomerase (Mus musculus, UniProt Q91ZQ5)	T
NCCC(O)c1cccc(CCC2CCCCO2)c1 (stereo not drawn)	isomerase (Mus musculus, UniProt Q91ZQ5)	T
CCCC(O)(CCC)CCc1cccc(SCCN)c1	isomerase (Mus musculus, UniProt Q91ZQ5)	T
NCCC(O)c1cccc(CCC2(O)CCCCCC2)c1 (stereo not drawn)	isomerase (Mus musculus, UniProt Q91ZQ5)	T

// next entry
Query :: % Inhibition 1 mg/kg 4 h strictly < 70% for this compound? "CCCC(O)(CCC)CCc1cccc([C@H](O)CCN)c1"
Result :: T
